Sourced from BindingDB's records for doi:10.1016/j.ejmech.2021.113775

target system: UniProt:O95136
Sequence (O95136 whole entry): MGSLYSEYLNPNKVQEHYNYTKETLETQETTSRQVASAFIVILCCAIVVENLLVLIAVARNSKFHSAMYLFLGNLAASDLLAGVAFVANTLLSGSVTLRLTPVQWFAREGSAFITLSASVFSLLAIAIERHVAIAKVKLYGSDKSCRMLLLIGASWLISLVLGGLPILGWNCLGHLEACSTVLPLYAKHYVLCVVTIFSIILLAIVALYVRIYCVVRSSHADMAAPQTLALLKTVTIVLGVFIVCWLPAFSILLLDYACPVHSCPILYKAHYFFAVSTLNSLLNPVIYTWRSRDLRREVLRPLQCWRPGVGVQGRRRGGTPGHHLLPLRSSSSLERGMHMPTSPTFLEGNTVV
experiment description: Binding affinity to S1PR2 (unknown origin) assessed as dissociation constant measured for 60 secs by surface plasmon resonance assay
measured endpoint: koff

Look over these answered cases.
compound structure string: Cc1cc(NC(=O)Nc2cc(Cl)nc(Cl)c2)n(C)n1
koff: 0.177 s⁻¹

compound structure string: O=C(Nc1cc(Cl)nc(Cl)c1)Nc1cc(Cl)nc(OC2CCCC2)c1
koff: 0.179 s⁻¹

Give me koff for each of these compounds, listed below.
1. CN(C)c1nc(NNC(=O)Nc2cc(Cl)nc(Cl)c2)nc2c1ccn2C
2. O=C(Nc1cc(Cl)nc(Cl)c1)Nc1cc2ccccn2n1
3. Cc1nn(C)c2nc(NNC(=O)Nc3cc(Cl)nc(Cl)c3)cc(C(C)C)c12

Resp:
1: 0.102 s⁻¹; 2: 0.116 s⁻¹; 3: 0.161 s⁻¹

Look up koff for the entries below, preserving their order.
1. COc1ccc(-c2ccc3cc(NC(=O)Nc4cc(Cl)nc(Cl)c4)nn3c2)cc1
2. COc1cc(NC(=O)Nc2cc(Cl)nc(Cl)c2)cc(Cl)n1
3. Cc1cc(NC(=O)Nc2cc(Cl)nc(Cl)c2)cc(C)n1
4. Cn1ccc2c(-c3ccccc3)nc(NNC(=O)Nc3cc(Cl)nc(Cl)c3)nc21

Resp:
1: 0.112 s⁻¹; 2: 0.219 s⁻¹; 3: 0.146 s⁻¹; 4: 0.136 s⁻¹

Please give koff, item by item, for the list that follows.
1. O=C(Nc1ccnc(Cl)c1)Nc1cc(Cl)nc(Cl)c1
2. O=C(Nc1cc(Cl)nc(Cl)c1)Nc1cc(Cl)nc(Cl)c1

Resp:
["0.201 s⁻¹", "0.697 s⁻¹"]
